- ASSAY SUMMARY: in vivo
- EXPERIMENTAL SETUP: in vivo, ip, intraperitoneal injection; Table 5; read-out: LD50 (mg/kg) by Kerber
Consider the reported LD50 of an entry and match it to a band in lo = under 50 mg/kg, mid = from 50 mg/kg up to 100 mg/kg, hi = 100 mg/kg and over

compound=CC1(C)C=Cc2c(nc3ccccc3c2N)C1 answer_label=lo
compound=CCN(CC)CCNc1c2c(nc3ccccc13)CC(C)(C)CC2=O answer_label=hi
compound="CC1(C)Cc2nc3ccccc3c(NCc3ccc(Cl)cc3)c2C(O)C1 (stereo not shown)" answer_label=mid
compound=CC1(C)CC(=O)c2c(nc3ccccc3c2NCc2ccccc2)C1 answer_label=hi
compound="Nc1c2c(nc3ccccc13)CCCC2 [Tacrine, tacrine, reference compound]" answer_label=lo
compound=CCCCNc1c2c(nc3ccccc13)CC(C)(C)C=C2 answer_label=lo
compound=Cc1cccc2c(N)c3c(nc12)CC(C)(C)CC3=O answer_label=hi
compound="CC1(C)Cc2nc3ccccc3c(N)c2C(O)C1 (stereo not shown)" answer_label=mid
compound=CCNc1c2c(nc3ccccc13)CC(C)(C)CC2=O answer_label=mid
compound=Cc1ccc(CNc2c3c(nc4ccccc24)CC(C)(C)CC3=O)c(C)c1 answer_label=hi
compound=Cc1ccc(C)c2c(N)c3c(nc12)CC(C)(C)CC3=O answer_label=lo
compound=CC(C)Nc1c2c(nc3ccccc13)CC(C)(C)CC2=O answer_label=mid
compound=CCCNc1c2c(nc3ccccc13)CC(C)(C)CC2=O answer_label=hi
compound="NC(=O)CN1CCCC1=O [Piracetam, piracetam, reference compound]" answer_label=hi
compound=Cc1cc(C)c2nc3c(c(N)c2c1)C(=O)CC(C)(C)C3 answer_label=hi

Taken from patent US5672707A.
